# targetOrTestSystem: Kir1.1 (ROMK1) (Homo sapiens)
# Construct: expression induced with sodium butyrate
# Sequence (P48048 whole entry, species assumed): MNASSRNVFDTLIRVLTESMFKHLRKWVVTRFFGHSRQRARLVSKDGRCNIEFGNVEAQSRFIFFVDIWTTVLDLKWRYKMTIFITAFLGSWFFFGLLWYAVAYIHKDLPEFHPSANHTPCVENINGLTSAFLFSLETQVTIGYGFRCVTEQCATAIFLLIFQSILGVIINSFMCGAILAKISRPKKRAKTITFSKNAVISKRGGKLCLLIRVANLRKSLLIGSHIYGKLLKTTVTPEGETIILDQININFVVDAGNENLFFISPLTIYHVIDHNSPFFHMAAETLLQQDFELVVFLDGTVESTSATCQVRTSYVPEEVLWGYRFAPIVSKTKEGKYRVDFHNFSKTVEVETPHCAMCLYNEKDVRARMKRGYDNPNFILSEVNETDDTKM
# testProtocol: Electrophysiology Assay (whole cell voltage clamp, IonWorks Quattro)
# testSettings: Chinese hamster ovary cells stably expressing Kir1.1; block during voltage step to 0 mV
Examples of compounds with documented pIC50 follow.
# pIC50: negative log10 of molar concentration; output just the value

Solved entries (count: 3):
> print(dat)
                                   compound  observedresult
1  Cc1c([C@@H](O)CN2CCC(C)(NC(=O)c3ccc(C#N)cn3)CC2)ccc2c1COC2=O [Example 40]            6.20
2  Cc1c(CCN2CCC(NC(=O)c3ccc(C#N)cc3S(C)(=O)=O)CC2)ccc2c1COC2=O [Example 29]            6.62
3  Cc1c(CCN2CCC(NC(=O)c3ccc4c(c3)COC4=O)CC2)ccc2c1COC2=O [Example 1]            7.40

Input Cc1c(CCN2CCC(NC(=O)c3ccc(F)c(C#N)c3)CC2)ccc2c1COC2=O [Example 12] . Output pIC50: 6.92

---

# targetOrTestSystem: hROMK (hKir1.1) (Homo sapiens, UniProt P48048)
# Sequence (P48048 whole entry): as the sequence (P48048 whole entry, species assumed) above
# testProtocol: Thallium Flux Assay
# testSettings: HEK293 cells stably expressing hROMK (hKir1.1)
Examples of molecules with documented pIC50 follow.
# pIC50: negative log10 of molar concentration; output just the value

Solved entries (count: 5):
> print(dat)
                                   molecule                        targetortestsystem  observedresult
1  Cc1c([C@@H](O)CN2CCC(CNC(=O)c3ccc(-n4cnnn4)nc3)(c3ccccc3)C2)ccc2c1COC2=O (single isomer, unassigned) [81 A]  hROMK (hKir1.1) (Homo sapiens, UniProt P48048)            6.21
2  Cc1c([C@@H](O)CN2CC[C@H](NC(=O)c3ccc(-n4cnnn4)cn3)[C@H](F)C2)ccc2c1COC2=O (single isomer, unassigned) [58 A]  hROMK (hKir1.1) (Homo sapiens, UniProt P48048)            6.27
3  Cc1c([C@@H](O)CN2CCCC(C)(CNC(=O)c3ccc(-n4cnnn4)nc3)C2)ccc2c1COC2=O (stereo partly shown)  hROMK (hKir1.1) (Homo sapiens, UniProt P48048)            6.14
4  Cc1cc(F)c(C(=O)NC2CCN(CCc3ccc4c(c3C)COC4=O)CC2)cc1C#N  hROMK (hKir1.1) (Homo sapiens, UniProt P48048)            6.02
5  Cc1c(CCN2CCC(N(C)C(=O)c3ccc4c(c3)COC4=O)CC2)ccc2c1COC2=O  hROMK (hKir1.1) (Homo sapiens, UniProt P48048)            6.22

Response field pIC50 (hROMK (hKir1.1) (Homo sapiens, UniProt P48048)) for item CO[C@@H]1CN(C[C@H](O)c2ccc3c(c2C)COC3=O)CC[C@@H]1NC(=O)c1ccc(-n2cnnn2)nc1 (single isomer, unassigned) [54 B] : 6.47

Response field pIC50 (hROMK (hKir1.1) (Homo sapiens, UniProt P48048)) for item CCOc1cc(C#N)ccc1C(=O)NC1CCN(C[C@H](O)c2ccc3c(c2C)COC3=O)CC1 : 7.15

Measured values drawn from patent US9777002B2 for this set.
